system: NCI-H226 lung; assay: NCI tumour cell line growth inhibition, 48 h
reported endpoint: TGI (µM)
Express it in µM; write the number only.

CCCCCCCCCC(=O)Oc1ccc(/C(=C(/C)c2ccccc2)c2ccc(OCCN3CCCC3)cc2)cc1	18.5
O=C(O)COc1c(Cl)cc(Cl)c(C(c2c(Cl)cc(Cl)c(OCC(=O)O)c2Cl)C(Cl)(Cl)Cl)c1Cl	64.1

Consider the additional molecule presented here.
Would you kindly share the measured TGI for C=C1C(=O)C23C(O)CC4C(C)(C)CCC(O)C4(C)C2CC(OC(C)=O)C1[C@H]3O (stereo not given in full) ?
28.1

----------
tested on: UACC-62 melanoma; experiment: NCI tumour cell line growth inhibition, 48 h; in the data active = GI50 below about 0.43 µM; inactive = the rest
// allowed return values: y (active), n (inactive)

These recorded examples may help you get a feel for the data.
COC(=O)c1sc(-n2cnc3cc(OC)c(OC)cc32)cc1OCc1ccccc1C(F)(F)F	n
O=C(CC1(O)C(=O)Nc2ccc(Cl)cc21)c1ccc(C(=O)NCC2CCC3(CC2)OOC2(CCCCC2)OO3)cc1 (configuration not stated)	n
COc1cc2c(cc1O)CCN[C@@]21CS[C@H]2c3c(OC(C)=O)c(C)c4c(c3C(COC1=O)N1C2C2NC(Cc3cc(C)c(OC)c(O)c32)[C@@H]1O)OCO4 (some centres not stated)	n
COc1cc(F)c(F)c(Nc2ccc(I)cc2F)c1NS(=O)(=O)C1(CC(O)CO)CC1 (configuration not stated)	n

For CCCCCn1sc(=O)n(Cc2ccc(CNC(=O)C(C)c3ccc(CC(C)C)cc3)cc2)c1=O (configuration not stated) , what call appears in the results of this test?
n

Query: recorded result category for Cc1ccc2nc(CN(CCN(Cc3nc4ccc(C)cc4[nH]3)Cc3nc4ccc(C)cc4[nH]3)Cc3nc4ccc(C)cc4[nH]3)[nH]c2c1 in this test
n

Dear colleague, could you share the recorded outcome for CC1OC(O[C@@H]2C=C3CC[C@@H]4[C@H](CC[C@]5(C)[C@@H](c6ccc(=O)oc6)CC[C@]45O)[C@@]3(C)CC2)C(O)C(O)C1O (some centres not stated) when you have a moment?
y

Numbers sourced from PubChem BioAssay (NCI).
